System: rat liver S9
Experiment: Sulfation of 3-OH-8-MBaP in incubations with rat liver S9
Format: in vitro ADME
Conditions: rat liver S9, PAPS
Readout Type: Km

> print(dat)
                                   compound   result
1  Cc1ccc2c(c1)cc1ccc3c(O)ccc4ccc2c1c43 [3-OH-8-MBaP, 3-Hydroxy-8-methyl-benzo[a]pyrene]  26.1 µM

---

Test: Sulfation of 3-OH-8-MBaP in incubations with rat liver S9
Format: in vitro ADME
Conditions: rat, rat liver S9, pH 7.4, rat liver S9, PAPS
Readout Type: Km at 70 min (µM)

> print(dat)
                                   molecule  number
1  Cc1ccc2c(c1)cc1ccc3c(O)ccc4ccc2c1c43 [3-OH-8-MBaP, 3-Hydroxy-8-methyl-benzo[a]pyrene]      26

---

Test: Glucuronidation of 3-OH-8-MBaP in incubations with rat liver S9
Assay type: in vitro ADME
Conditions: rat, pooled rat liver S9, pH 7.4, rat liver S9, UDPGA
Readout Type: Km at 20 min (µM)

> print(dat)
                                   compound  unit.abbrev  number
1  Cc1ccc2c(c1)cc1ccc3c(O)ccc4ccc2c1c43 [3-OH-8-MBaP, 3-Hydroxy-8-methyl-benzo[a]pyrene]           µM      16
